assay-system: A*2902 (Homo sapiens, UniProt P04439, A270S/D101N/D185E/E176V/E277Q/E87Q/F33T/G231S/H175R/I121M/I218V/I322F/K168Q/L300P/L318F/M331R/P208A/P217A/Q86L/T323A/T345S/V100A/V358M)
protocol-notes: biochemical
Assay type: binding
No end group written: not given here.
Parameter pIC50: see the listing below.
Friendly reminder that pIC50 comes from taking -log10 of the concentration in mol/L.

Solved cases below.
INSERT INTO results (query_sequence, test_value) VALUES
  ('ATCVSHRGLY [Peptide 1580.22]', 5.38),
  ('ITSPPDSSY [Peptide 9012.0118]', 4.78),
  ('KFYSKISEY [Peptide 78.0363]', 5.80),
  ('EYRHYQYSLY [Peptide 78.0183]', 5.62),
  ('QVDYYGLYY [Peptide 1580.19]', 7.16);

// next entry
Prompt line: Requested read-out: pIC50. Entry: RFHNIGGRW [Peptide 78.0369]
Response line: 4.92

Ref: patent US9340577B2
